Molecular target: UniProt:P24008
Sequence (P24008 whole entry): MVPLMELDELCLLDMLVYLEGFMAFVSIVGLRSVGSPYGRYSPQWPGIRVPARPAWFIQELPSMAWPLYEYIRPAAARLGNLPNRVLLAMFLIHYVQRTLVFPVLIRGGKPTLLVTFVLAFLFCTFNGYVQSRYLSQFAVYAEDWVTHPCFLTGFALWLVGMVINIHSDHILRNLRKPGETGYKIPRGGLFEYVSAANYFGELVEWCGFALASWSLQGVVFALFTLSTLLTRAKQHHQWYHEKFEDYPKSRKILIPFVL
ENDPOINT_LABEL: IC50 (µM)
Please give a number only; it is taken to be in µM.

Identify IC50 associated with the compound CC(C)(C)NC(=O)[C@H]1CC[C@H]2[C@@H]3CC[C@H]4NC(=O)C=C[C@]4(C)[C@H]3CC[C@]12C [FINASTERIDE]
40

Cited source for all entries: ChEMBL document CHEMBL1151037
